target or system: human V1a receptor (Homo sapiens, UniProt P37288)
Construct: expressed in transfected cells; host or cells: CHO K1 (ATCC), also stably transfected with a modified aequorin
Sequence (P37288 whole entry): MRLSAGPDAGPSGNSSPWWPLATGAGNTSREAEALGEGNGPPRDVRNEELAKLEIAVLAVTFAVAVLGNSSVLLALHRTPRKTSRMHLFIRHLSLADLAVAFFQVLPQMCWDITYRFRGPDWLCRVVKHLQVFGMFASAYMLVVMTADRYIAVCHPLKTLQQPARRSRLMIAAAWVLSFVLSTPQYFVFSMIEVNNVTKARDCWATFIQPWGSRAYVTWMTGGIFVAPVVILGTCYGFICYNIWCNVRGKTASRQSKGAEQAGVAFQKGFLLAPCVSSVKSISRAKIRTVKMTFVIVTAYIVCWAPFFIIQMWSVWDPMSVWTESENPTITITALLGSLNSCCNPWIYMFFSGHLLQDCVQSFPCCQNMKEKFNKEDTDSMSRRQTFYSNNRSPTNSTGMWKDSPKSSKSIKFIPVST
measurement notes: Cellular in vitro assay for determining vasopressin receptor activity (V1a cell line, aequorin luminescence)
Assay type: cell-based
test settings: selectivity ratio; Table 1A, compounds of the invention
The compounds listed here are annotated with their ratio IC50 hV2/hV1a.
A bare number is all that is needed in reply.

INSERT INTO results (chemical_smiles, value_measured) VALUES
  ('NC(=O)c1nc(Cn2nc(-c3ccc(Cl)cc3)n(CC(=O)C(F)(F)F)c2=O)nn1-c1ncccc1Cl', 20.0),
  ('NC(=O)c1nc(Cn2nc(-c3ccc(Cl)cc3)n(CC(=O)C(F)(F)F)c2=O)nn1-c1ncccc1C(F)(F)F', 66.0),
  ('CCOC(=O)c1ccncc1-n1nc(Cn2nc(-c3ccc(Cl)cc3)n(C[C@H](O)C(F)(F)F)c2=O)nc1C(N)=O', 35.0);

Here's the next entry for you.
Query string: Looking for the measured ratio IC50 hV2/hV1a of NC(=O)c1cccnc1-n1nc(Cn2nc(-c3ccc(Cl)cc3)n(C[C@H](O)C(F)(F)F)c2=O)nc1C(N)=O , can you help?
Result string: 30.0

====

The molecules listed here are annotated with their pIC50.
target or system: human V2 receptor (Homo sapiens)
Sequence (P30518 whole entry): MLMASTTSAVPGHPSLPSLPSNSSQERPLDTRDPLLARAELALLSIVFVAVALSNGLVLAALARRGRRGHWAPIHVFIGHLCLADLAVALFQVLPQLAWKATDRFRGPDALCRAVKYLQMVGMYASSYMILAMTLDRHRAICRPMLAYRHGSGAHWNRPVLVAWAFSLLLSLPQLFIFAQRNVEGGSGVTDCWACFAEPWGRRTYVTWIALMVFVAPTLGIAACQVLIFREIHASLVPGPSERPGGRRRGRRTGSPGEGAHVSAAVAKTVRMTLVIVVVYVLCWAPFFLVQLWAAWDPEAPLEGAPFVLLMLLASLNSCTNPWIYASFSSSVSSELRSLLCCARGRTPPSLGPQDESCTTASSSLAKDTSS
measurement notes: Cellular in vitro assay for determining vasopressin receptor activity (V2 cell line, CRE-luciferase)
test settings: CHO cell line transfected with human V2 receptor; antagonism of [Arg8]-vasopressin at EC50; Table 1A, compounds of the invention; read-out: IC50 hV2
Quick note: pIC50 values are minus log10 of concentrations in mol/L.

INSERT INTO measurements (molecule, target_or_system, readout_label, value_measured) VALUES
  ('NC(=O)c1nc(Cn2nc(-c3ccc(Cl)cc3)n(C[C@H](O)C(F)(F)F)c2=O)nn1-c1ncccc1Br [Example 4]', 'human V2 receptor (Homo sapiens)', 'pIC50', 7.05);

Query string: Looking for the measured pIC50 of CCOC(=O)c1ccncc1-n1nc(Cn2nc(-c3ccc(Cl)cc3)n(C[C@H](O)C(F)(F)F)c2=O)nc1C(N)=O [Example 8] , can you help?
Result string: 6.05

Query string: Looking for the measured pIC50 of NC(=O)c1nc(Cn2nc(-c3ccc(Cl)cc3)n(C[C@@H](O)C(F)(F)F)c2=O)nn1-c1cnccc1Cl [Example 12] , can you help?
Result string: 6.07

Query string: Looking for the measured pIC50 of NC(=O)c1nc(Cn2nc(-c3ccc(Cl)cc3)n(CC(=O)C(F)(F)F)c2=O)nn1-c1ncccc1Cl [Example 14] , can you help?
Result string: 6.98

====

target or system: human V2 receptor (Homo sapiens)
measurement notes: Cellular in vitro assay for determining vasopressin receptor activity (V2 cell line, CRE-luciferase)
test settings: CHO cell line transfected with human V2 receptor; antagonism of [Arg8]-vasopressin at EC50; Table 1A, compounds of the invention; read-out: IC50 hV2
The compounds listed here are annotated with their pIC50.
Quick note: pIC50 values are minus log10 of concentrations in mol/L.

INSERT INTO assay_data (chemical_smiles, value_measured) VALUES
  ('NC(=O)c1nc(Cn2nc(-c3ccc(Cl)cc3)n(CC(=O)C(F)(F)F)c2=O)nn1-c1cnccc1Cl', 7.12),
  ('NC(=O)c1nc(Cn2nc(-c3ccc(Cl)cc3)n(C[C@@H](O)C(F)(F)F)c2=O)nn1-c1cnccc1C(F)(F)F', 6.16),
  ('NC(=O)c1nc(Cn2nc(-c3ccc(Cl)cc3)n(C[C@H](O)C(F)(F)F)c2=O)nn1-c1ncccc1C(F)(F)F', 6.77),
  ('NC(=O)c1cccnc1-n1nc(Cn2nc(-c3ccc(Cl)cc3)n(C[C@H](O)C(F)(F)F)c2=O)nc1C(N)=O', 5.65),
  ('NC(=O)c1nc(Cn2nc(-c3ccc(Cl)cc3)n(C[C@@H](O)C(F)(F)F)c2=O)nn1-c1ncccc1C(F)(F)F', 6.21),
  ('NC(=O)c1nc(Cn2nc(-c3ccc(Cl)cc3)n(C[C@H](O)C(F)(F)F)c2=O)nn1-c1ncccc1Cl', 7.41),
  ('NC(=O)c1nc(Cn2nc(-c3ccc(Cl)cc3)n(CC(=O)C(F)(F)F)c2=O)nn1-c1ncccc1Br', 6.20),
  ('NC(=O)c1nc(Cn2nc(-c3ccc(Cl)cc3)n(C[C@@H](O)C(F)(F)F)c2=O)nn1-c1ncccc1Cl', 6.10);

Query string: Looking for the measured pIC50 of NC(=O)c1nc(Cn2nc(-c3ccc(Cl)cc3)n(C[C@H](O)C(F)(F)F)c2=O)nn1-c1cnccc1Cl , can you help?
Result string: 7.60

Query string: Looking for the measured pIC50 of NC(=O)c1nc(Cn2nc(-c3ccc(Cl)cc3)n(C[C@H](O)C(F)(F)F)c2=O)nn1-c1cnccc1C(F)(F)F , can you help?
Result string: 6.53

Query string: Looking for the measured pIC50 of CCOC(=O)c1cccnc1-n1nc(Cn2nc(-c3ccc(Cl)cc3)n(C[C@H](O)C(F)(F)F)c2=O)nc1C(N)=O , can you help?
Result string: 5.90

Query string: Looking for the measured pIC50 of NC(=O)c1nc(Cn2nc(-c3ccc(Cl)cc3)n(C[C@H](O)C(F)(F)F)c2=O)nn1-c1ncccc1OC(F)(F)F , can you help?
Result string: 6.06
